Target: IL-17A/A (Homo sapiens, UniProt Q16552)
Assay: IL-17A/A HEK-Blue Cell Assay
Format: cell-based
Conditions: HEK-Blue IL-17 reporter cells, IL-17A/A stimulation, 20 hours, SEAP readout; read-out: IL17 AA HEK-5 pIC50 (converted)
REPORTED_METRIC: IC50

Past entries and their recorded results:
>>> meas_value("CCC(OC)C(=O)N[C@@H](C(=O)N1CCN(C)[C@H](C)C1)[C@@H](C)c1ccc(NC(=O)[C@@H](NC(=O)C2(F)CC2)C(C2CC2)C2CC2)c(F)c1 (single isomer, unassigned) [Compound 336]")
"10 to 100 nM"
>>> meas_value("CCn1nccc1C(=O)N[C@H](C(=O)Nc1ccc([C@H](C)[C@@H](NC(=O)[C@H](C)OC)C(=O)N2CC[C@H](N(C)C)C2)cc1F)C(C1CC1)C1CC1 [Compound 255]")
"< 10 nM"
>>> meas_value("CCOC(=O)N[C@@H](CF)C(=O)N[C@@H](C(=O)N1CCN(C)[C@H](C)C1)[C@@H](C)c1ccc(NC(=O)[C@@H](NC(=O)c2nonc2C)C(C2CC2)C2CC2)c(F)c1 [Compound 363]")
"< 10 nM"

Q. Please provide the recorded IC50 for CCC(=O)N[C@@H](C(=O)N1CCN(C)CC1)[C@@H](C)c1ccc(NC(=O)[C@@H](NC(=O)c2ccnn2C)C(C2CC2)C2CC2)c(F)c1 [Compound 247] , tested on IL-17A/A (Homo sapiens, UniProt Q16552).
A. 10 to 100 nM

Q. Please provide the recorded IC50 for CCC(=O)N[C@@H](C(=O)N1CCN(C)[C@H](C)C1)[C@@H](C)c1ccc(NC(=O)[C@@H](NC(=O)c2nonc2C)C(C2CC2)C2CC2)c(F)c1 [Compound 246] , tested on IL-17A/A (Homo sapiens, UniProt Q16552).
A. < 10 nM

----------
Entries annotated with measured IC50
Molecular target: IL-17A/F (Homo sapiens, UniProt Q16552+Q96PD4)
Sequence (Q16552 24-155): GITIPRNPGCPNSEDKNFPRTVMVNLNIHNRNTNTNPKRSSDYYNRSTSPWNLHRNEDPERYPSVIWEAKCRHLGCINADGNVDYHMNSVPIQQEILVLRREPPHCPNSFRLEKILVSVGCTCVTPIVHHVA
Sequence (Q96PD4 31-163): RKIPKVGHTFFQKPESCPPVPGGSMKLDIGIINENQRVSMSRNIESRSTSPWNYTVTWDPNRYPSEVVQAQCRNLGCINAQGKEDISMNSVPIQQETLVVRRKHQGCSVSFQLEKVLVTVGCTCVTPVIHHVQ
Assay: IL-17A/F HEK-Blue Cell Assay
Format: cell-based
Details: HEK-Blue IL-17 reporter cells, IL-17A/F stimulation, 20 hours, SEAP readout; read-out: IL17AF HEK Blue pIC50 (converted)

Q. IC50 for `CCOC(=O)N[C@@H](C)C(=O)N[C@@H](C(=O)N1CCN(C)[C@H](C)C1)[C@@H](C)c1ccc(NC(=O)[C@@H](NC(=O)C2(F)CC2)C(C2CC2)C2CC2)c(F)c1` ?
A. 0.01 to 0.1 µM

Q. IC50 for `COCC(=O)N[C@@H](C(=O)N1CCN(C)CC1)[C@@H](C)c1ccc(NC(=O)[C@@H](NC(=O)c2ccnn2C(C)C)C(C2CC2)C2CC2)c(F)c1` ?
A. 0.01 to 0.1 µM

Q. IC50 for `CCOC(=O)N[C@@H](C)C(=O)N[C@@H](C(=O)N1CCN(C)CC1)[C@@H](C)c1ccc(NC(=O)[C@@H](NC(=O)C2(F)CC2)C(C2CC2)C2CC2)c(F)c1` ?
A. 0.1 to 10 µM

----------
Target: IL-17A/F (Homo sapiens, UniProt Q16552+Q96PD4)
Assay: IL-17A/F HEK-Blue Cell Assay
Type: cell-based
Details: HEK-Blue IL-17 reporter cells, IL-17A/F stimulation, 20 hours, SEAP readout; read-out: IL17AF HEK Blue pIC50 (converted)
Experimental: The HEK-Blue IL-17 reporter cell line (Fisher #NC1408637) was used for cell-based IL-17A/F inhibition assays. Cells were grown and prepared for assays according to the manufacturer's instructions. […] Media from the cells is then added to a development reagent (Quanti-Blue Substrate, Fisher #NC9711613), and read at A630. […]
REPORTED_METRIC: IC50

Past entries and their recorded results:
>>> meas_value("CCOC(=O)N1CCC[C@H]1C(=O)N[C@@H](C(=O)N1CCN(C)[C@H](C)C1)[C@@H](C)c1ccc(NC(=O)[C@@H](NC(=O)C2(F)CC2)C(C2CC2)C2CC2)c(F)c1")
"100 to 10000 nM"
>>> meas_value("CCn1nccc1C(=O)N[C@H](C(=O)Nc1ccc([C@H](C)[C@@H](NC(=O)[C@H](C)N(C)C2=NCCO2)C(=O)N2CCN(C)[C@H](C)C2)cc1F)C(C1CC1)C1CC1")
"10 to 100 nM"
>>> meas_value("CO[C@@H](C)C(=O)N[C@@H](C(=O)N1CCN(C)[C@H](C)C1)[C@@H](C)c1ccc(NC(=O)[C@@H](NC(=O)c2nonc2C)C(C2CC2)C2CC2)c(F)c1")
"100 to 10000 nM"
>>> meas_value("CCn1nccc1C(=O)N[C@H](C(=O)Nc1ccc([C@H](C)[C@@H](NC(=O)COC)C(=O)N2CCN(C)C[C@@H]2C)cc1F)C(C1CC1)C1CC1")
"10 to 100 nM"
>>> meas_value("CCC(=O)N[C@@H](C(=O)N1CCN(C)[C@H](C)C1)[C@@H](C)c1ccc(NC(=O)[C@@H](NC(=O)c2nonc2C)C(C2CC2)C2CC2)c(F)c1")
"100 to 10000 nM"

Q. IC50 for `CCOC(=O)N[C@@H](C)C(=O)N[C@@H](C(=O)N1CCN(C)CC1)[C@@H](C)c1ccc(NC(=O)[C@@H](NC(=O)c2nonc2C)C(C2CC2)C2CC2)c(F)c1` ?
A. 10 to 100 nM

Q. IC50 for `CO[C@@H](C)C(=O)N[C@@H](C(=O)N1CCN(C)CC1)[C@@H](C)c1ccc(NC(=O)[C@@H](NC(=O)c2ccnn2C2CC2)C(C2CC2)C2CC2)c(F)c1` ?
A. 100 to 10000 nM

Q. IC50 for `CCn1nccc1C(=O)N[C@H](C(=O)Nc1ccc([C@H](C)[C@@H](NC(=O)[C@H](C)OC)C(=O)N2C[C@H]3C[C@@H](C2)N3C)cc1F)C(C1CC1)C1CC1` ?
A. 100 to 10000 nM

Q. IC50 for CCn1nccc1C(=O)N[C@H](C(=O)Nc1ccc([C@H](C)[C@@H](NC(=O)[C@@H](C)F)C(=O)N2CCNC(CF)C2)cc1F)C(C1CC1)C1CC1 (single isomer, unassigned) ?
A. 100 to 10000 nM

Q. IC50 for `CCC(=O)N[C@@H](C(=O)N1CCN(C)CC1)[C@@H](C)c1ccc(NC(=O)[C@@H](NC(=O)c2ccnn2CC)C(C2CC2)C2CC2)c(F)c1` ?
A. 10 to 100 nM

Q. IC50 for `CCOC(=O)N[C@@H](CF)C(=O)N[C@@H](C(=O)N1CCN(C)[C@H](C)C1)[C@@H](C)c1ccc(NC(=O)[C@@H](NC(=O)C2(F)CC2)C(C2CC2)C2CC2)c(F)c1` ?
A. 100 to 10000 nM

Q. IC50 for `CCOC(=O)N[C@@H](CF)C(=O)N[C@@H](C(=O)N1CCN(C)CC1)[C@@H](C)c1ccc(NC(=O)[C@@H](NC(=O)C2(F)CC2)C(C2CC2)C2CC2)c(F)c1` ?
A. 100 to 10000 nM

Q. IC50 for `C[C@@H](c1ccc(NC(=O)[C@@H](NC(=O)C2(F)CC2)C(C2CC2)C2CC2)c(F)c1)[C@@H](NC(=O)N(C)C1CC1)C(=O)N1C[C@H]2CC[C@@H](C1)N2C` ?
A. 100 to 10000 nM

Values from patent US20250177383A1
